# TEST TARGET: human PD-L1 (soluble protein of the kinetic measurements) (human) (UniProt Q9NZQ7)
# Sequence (Q9NZQ7 19-238 limits assumed): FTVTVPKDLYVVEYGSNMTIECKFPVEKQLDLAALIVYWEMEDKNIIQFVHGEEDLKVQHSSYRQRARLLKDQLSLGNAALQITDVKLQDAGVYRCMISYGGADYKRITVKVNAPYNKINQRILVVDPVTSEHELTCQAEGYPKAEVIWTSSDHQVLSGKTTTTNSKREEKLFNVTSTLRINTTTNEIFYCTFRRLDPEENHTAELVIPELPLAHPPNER
# TEST METHOD NOTES: dissociation rate constant of scFv phage clone, method not named
Please provide measured koff for the entries that follow.
Give your result in s⁻¹ as a bare value.

Inquiry: Can you share its koff? I mean this binder: ME4.B10 scFv phage clone (scFv, V domains shown, part only, scFv linker not given) VH: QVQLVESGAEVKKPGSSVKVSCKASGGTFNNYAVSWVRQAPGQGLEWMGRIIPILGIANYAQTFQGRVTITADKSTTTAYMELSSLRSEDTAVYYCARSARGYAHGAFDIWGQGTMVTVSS VL: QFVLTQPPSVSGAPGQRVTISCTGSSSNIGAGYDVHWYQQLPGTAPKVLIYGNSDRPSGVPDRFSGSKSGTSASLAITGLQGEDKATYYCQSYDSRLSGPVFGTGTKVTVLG
Reply text: 0.00016

Inquiry: I'd like to know its koff. The binder in question is 1G1 scFv phage clone (scFv, V domains shown, part only, scFv linker not given; phage display) VH: QVQLVESGGGLVQPGRSLRLSCAASGFTFDDYAMHWVRQAPGKGLEWVSGISWNSGSIGYADSVKGRFTISRDNAKNSLYLQMNSLRAEDTAVYYCAKPRDISSWLGMDVWGQGTTVTVSS VL: DIQMTQSPSSVSASVGDRVTITCRASQDISSWLAWYQQKPGKAPKLLIYAASSLQSGVPSRFSGSGSGTDFTLTISSLQPEDSATYYCQQTNNFPYTFGQGTKLEIKR
Reply text: 0.000152

Inquiry: Look up koff for this binder: ME4.A2 scFv phage clone (scFv, V domains shown, part only, scFv linker not given) VH: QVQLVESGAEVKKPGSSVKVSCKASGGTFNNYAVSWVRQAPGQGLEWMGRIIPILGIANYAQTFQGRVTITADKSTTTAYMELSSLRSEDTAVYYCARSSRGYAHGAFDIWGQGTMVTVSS VL: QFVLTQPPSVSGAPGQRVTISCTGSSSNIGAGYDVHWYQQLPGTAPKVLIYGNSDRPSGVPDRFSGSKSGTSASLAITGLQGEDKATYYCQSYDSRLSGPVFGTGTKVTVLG
Reply text: 0.000183

Inquiry: Any idea what its koff is? The binder is ME4 scFv phage clone (scFv, V domains shown, part only, scFv linker not given; phage display) VH: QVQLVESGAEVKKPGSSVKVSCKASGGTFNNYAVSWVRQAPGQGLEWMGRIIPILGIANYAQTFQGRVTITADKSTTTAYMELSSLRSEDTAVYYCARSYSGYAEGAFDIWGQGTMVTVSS VL: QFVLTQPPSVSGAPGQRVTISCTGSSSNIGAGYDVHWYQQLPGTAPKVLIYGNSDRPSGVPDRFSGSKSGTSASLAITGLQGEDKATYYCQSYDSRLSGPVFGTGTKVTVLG
Reply text: 0.000186

Inquiry: I have this binder here, ME4.B12 scFv phage clone (scFv, V domains shown, part only, scFv linker not given) VH: QVQLVESGAEVKKPGSSVKVSCKASGGTFNNYAVSWVRQAPGQGLEWMGRIIPILGIANYAQTFQGRVTITADKSTTTAYMELSSLRSEDTAVYYCARSSFGYSVGAFDIWGQGTMVTVSS VL: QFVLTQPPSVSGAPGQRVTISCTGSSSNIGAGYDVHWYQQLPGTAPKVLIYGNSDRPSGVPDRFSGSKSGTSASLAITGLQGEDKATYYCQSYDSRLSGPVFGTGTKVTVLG , and I need its recorded koff.
Reply text: 0.000177
